# Tested on: Plasmodium falciparum
# assay_notes: NOVARTIS: Inhibition of Plasmodium falciparum 3D7 (drug-susceptible) proliferation in erythrocyte-based infection assay
# Format: functional, organism-based
# measurement_context: Plasmodium falciparum, 3D7
property: EC50 (nM)
Field format: number, assumed nM, no unit text.

Known results for compounds:
[
  {
    "compound": "CN(CCCNc1ccnc2cc(Cl)ccc12)C(=O)c1cccc(Cl)c1",
    "EC50, nM": 269
  },
  {
    "compound": "CCOC(=O)C1=C(C)N=c2sc(=Cc3ccccc3OCc3ccccc3)c(=O)n2C1c1ccccc1OC(C)C (stereo not drawn)",
    "EC50, nM": 9730
  },
  {
    "compound": "CCN(CC)C1SC=C(c2ccc([N+](=O)[O-])cc2)S1 (stereo not drawn)",
    "EC50, nM": 446
  }
]

Entry CN(C)CCCNc1cc(-c2ccccc2)nc2ccccc12 has what EC50? 123

Entry CCN(CC)c1nc(NN=Cc2cccc([N+](=O)[O-])c2OC)nc(Nc2ccccc2)n1 has what EC50? 244

Entry CC1=C(C(=O)OCC(C)C)C(c2ccc(OCc3ccccc3)cc2)C2=C(CC(c3ccccc3)CC2=O)N1 (stereo not drawn) has what EC50? 961

Entry COc1ccc(C(=O)C(CCC(CNC(C)(C)C)C(=O)c2ccc(OC)cc2)CNC(C)(C)C)cc1 (stereo not drawn) has what EC50? 1120

Entry O=C(Nc1nccs1)c1cc(-c2cccnc2)nc2ccc(Br)cc12 has what EC50? 1080

====

List of pEC50 values.
# Test system: Plasmodium falciparum
# assay_notes: NOVARTIS: Inhibition of Plasmodium falciparum 3D7 (drug-susceptible) proliferation in erythrocyte-based infection assay
# Type: functional, organism-based
# measurement_context: Plasmodium falciparum, 3D7
pEC50: −log10 of the molar value.

Known results for compounds:
[
  {
    "compound": "COc1ccc(CCNC(=O)c2cc(S(=O)(=O)N3CCC4(CC3)OCCO4)ccc2F)cc1OC",
    "target_or_system": "Plasmodium falciparum",
    "endpoint_result": "< 5.90"
  },
  {
    "compound": "O=C(c1nccs1)C1CCN(C(=O)c2cscn2)CC1",
    "target_or_system": "Plasmodium falciparum",
    "endpoint_result": "< 5.90"
  },
  {
    "compound": "CN(C)CC(O)Cn1c2ccccc2c2ccccc21 (centres undefined)",
    "target_or_system": "Plasmodium falciparum",
    "endpoint_result": "< 4.93"
  }
]

# ---- query compound ----
Entry CC1CCN(Cc2c(O)ccc3cc(-c4nc5ccccc5s4)c(=O)oc23)CC1 has what pEC50? < 4.90

====

List of pEC50 values.
# Tested on: Plasmodium falciparum
# assay_notes: NOVARTIS: Inhibition of Plasmodium falciparum 3D7 (drug-susceptible) proliferation in erythrocyte-based infection assay
# Format: functional, organism-based
# measurement_context: Plasmodium falciparum, 3D7
Reminder that pEC50 means the negative base-10 logarithm of the concentration expressed in mol/L.

[
  {
    "molecule": "O=C(NCc1ccccc1)c1cnc(NCCCn2ccnc2)nc1NCCc1ccccc1",
    "target_or_system": "Plasmodium falciparum",
    "pEC50": 6.69
  },
  {
    "molecule": "COc1cccc(/C=C2\\SC(=Nc3ccccc3)NC2=O)c1OC",
    "target_or_system": "Plasmodium falciparum",
    "pEC50": 6.28
  },
  {
    "molecule": "Oc1ccc(Nc2nc(NCc3ccco3)c3ccccc3n2)cc1",
    "target_or_system": "Plasmodium falciparum",
    "pEC50": 7.06
  },
  {
    "molecule": "CC(NCCN1CCNCC1)c1cc(C(C)(C)C)cc2c1CCC2(C)C (stereo not given)",
    "target_or_system": "Plasmodium falciparum",
    "pEC50": 6.22
  },
  {
    "molecule": "CC(C)(C)c1ccc(C=CC(=O)NCc2ccco2)cc1",
    "target_or_system": "Plasmodium falciparum",
    "pEC50": 6.21
  }
]

Entry CCc1cc2c(Sc3nnc(N)s3)ncnc2s1 has what pEC50? 6.26

Entry O=C1N(c2ccccc2)C[C@@H]2C[C@@H](c3ccc(C#CCCO)cc3)N3CCC[C@@]123 has what pEC50? 6.08

Entry COc1cccc(Nc2nc(NCC3CCCO3)c3ccccc3n2)c1 (stereo not given) has what pEC50? 6.64
